Where do the numbers come from? From ChEMBL document CHEMBL4184317.

tested-on: Bromodomain and WD repeat-containing protein 1 (Homo sapiens, UniProt Q9NSI6)
Sequence (Q9NSI6 whole entry): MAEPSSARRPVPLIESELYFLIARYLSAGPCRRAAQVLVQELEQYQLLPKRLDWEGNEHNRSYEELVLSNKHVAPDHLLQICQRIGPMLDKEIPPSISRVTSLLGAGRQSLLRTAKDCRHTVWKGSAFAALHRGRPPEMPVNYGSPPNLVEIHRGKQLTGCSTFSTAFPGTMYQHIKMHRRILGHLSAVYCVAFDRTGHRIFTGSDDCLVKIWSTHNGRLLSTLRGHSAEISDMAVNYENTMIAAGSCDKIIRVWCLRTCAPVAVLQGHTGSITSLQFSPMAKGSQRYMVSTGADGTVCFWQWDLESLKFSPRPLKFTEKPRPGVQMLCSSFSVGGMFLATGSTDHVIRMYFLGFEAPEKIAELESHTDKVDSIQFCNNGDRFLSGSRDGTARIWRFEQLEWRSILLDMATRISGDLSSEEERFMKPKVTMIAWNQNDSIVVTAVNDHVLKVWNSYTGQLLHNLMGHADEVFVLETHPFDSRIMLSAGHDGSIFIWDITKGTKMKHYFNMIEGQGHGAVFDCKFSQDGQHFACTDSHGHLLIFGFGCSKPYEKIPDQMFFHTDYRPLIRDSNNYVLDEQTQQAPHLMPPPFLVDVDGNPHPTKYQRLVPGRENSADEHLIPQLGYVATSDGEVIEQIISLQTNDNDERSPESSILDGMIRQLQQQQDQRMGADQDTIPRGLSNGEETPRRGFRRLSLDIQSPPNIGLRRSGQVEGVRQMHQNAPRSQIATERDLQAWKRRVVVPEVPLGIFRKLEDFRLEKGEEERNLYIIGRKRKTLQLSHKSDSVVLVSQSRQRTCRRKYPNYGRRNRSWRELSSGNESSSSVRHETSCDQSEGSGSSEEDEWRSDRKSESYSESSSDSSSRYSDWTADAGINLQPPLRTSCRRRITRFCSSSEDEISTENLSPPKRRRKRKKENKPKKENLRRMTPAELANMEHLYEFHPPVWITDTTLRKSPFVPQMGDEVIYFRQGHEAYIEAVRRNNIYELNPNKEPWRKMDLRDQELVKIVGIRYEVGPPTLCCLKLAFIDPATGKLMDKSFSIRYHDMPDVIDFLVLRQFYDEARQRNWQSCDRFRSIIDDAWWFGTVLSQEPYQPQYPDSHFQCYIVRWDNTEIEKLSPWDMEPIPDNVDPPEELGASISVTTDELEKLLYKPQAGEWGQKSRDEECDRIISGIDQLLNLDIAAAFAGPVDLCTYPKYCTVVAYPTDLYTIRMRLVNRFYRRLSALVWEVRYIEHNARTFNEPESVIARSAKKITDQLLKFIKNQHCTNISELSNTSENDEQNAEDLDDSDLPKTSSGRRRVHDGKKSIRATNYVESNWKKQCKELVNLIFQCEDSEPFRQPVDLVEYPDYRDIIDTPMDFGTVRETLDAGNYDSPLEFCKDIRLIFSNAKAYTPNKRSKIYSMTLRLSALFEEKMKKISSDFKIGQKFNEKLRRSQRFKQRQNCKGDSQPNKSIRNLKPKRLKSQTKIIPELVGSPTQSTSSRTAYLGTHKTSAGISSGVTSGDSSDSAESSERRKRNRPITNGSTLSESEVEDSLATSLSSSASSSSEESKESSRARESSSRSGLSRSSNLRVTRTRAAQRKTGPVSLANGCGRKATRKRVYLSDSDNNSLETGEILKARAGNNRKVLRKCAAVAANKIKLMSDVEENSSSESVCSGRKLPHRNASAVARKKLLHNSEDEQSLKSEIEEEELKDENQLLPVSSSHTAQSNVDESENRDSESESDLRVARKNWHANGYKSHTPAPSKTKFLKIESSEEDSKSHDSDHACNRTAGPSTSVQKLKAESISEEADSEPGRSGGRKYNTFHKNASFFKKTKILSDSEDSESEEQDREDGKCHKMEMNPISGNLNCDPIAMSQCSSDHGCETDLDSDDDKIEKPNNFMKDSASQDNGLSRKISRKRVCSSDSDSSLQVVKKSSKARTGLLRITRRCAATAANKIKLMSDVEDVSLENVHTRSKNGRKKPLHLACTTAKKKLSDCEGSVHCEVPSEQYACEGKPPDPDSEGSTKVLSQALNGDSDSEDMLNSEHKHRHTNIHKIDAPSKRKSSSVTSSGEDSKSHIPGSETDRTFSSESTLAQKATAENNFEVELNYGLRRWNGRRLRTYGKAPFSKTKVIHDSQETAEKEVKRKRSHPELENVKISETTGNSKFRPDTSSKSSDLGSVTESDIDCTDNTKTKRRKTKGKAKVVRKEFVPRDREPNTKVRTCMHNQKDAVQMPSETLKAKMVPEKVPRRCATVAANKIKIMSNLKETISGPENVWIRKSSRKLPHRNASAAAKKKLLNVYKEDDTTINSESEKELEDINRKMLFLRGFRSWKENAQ
procedure-details: Binding affinity to human partial length DNA-tagged […] BD2 expressed in bacterial by BROMOscan method
readout-name: pKd
Remember, pKd is on a log scale: it is -log10 of the molar concentration.

Using the record for CC(=O)N1c2ccc(C3=CCNCC3)cc2N(Cc2ccccc2CO)C[C@@H]1C1CC1 , state its measured pKd. 4.82

###

procedure-details: Solubility of the compound in FaSSIF at pH 6.5 after 16 hrs by HPLC method
Format: physicochemical
Parameter solubility at 16 h: see the listing below.
Please give a number only; it is taken to be in µg/mL.

CC(=O)N1c2ccc(C3=CCNCC3)cc2N(Cc2ccccc2CO)C[C@@H]1C1CC1 : 386

Using the record for CC(=O)N1c2ccc(-c3cnc(C(N)=O)nc3)cc2N(Cc2ccccc2CO)C[C@@H]1C1CC1 , state its measured solubility at 16 h. 18

###

Parameter IC50: see the listing below.
tested-on: Bromodomain-containing protein 2 (Homo sapiens, UniProt P25440)
Sequence (P25440 whole entry): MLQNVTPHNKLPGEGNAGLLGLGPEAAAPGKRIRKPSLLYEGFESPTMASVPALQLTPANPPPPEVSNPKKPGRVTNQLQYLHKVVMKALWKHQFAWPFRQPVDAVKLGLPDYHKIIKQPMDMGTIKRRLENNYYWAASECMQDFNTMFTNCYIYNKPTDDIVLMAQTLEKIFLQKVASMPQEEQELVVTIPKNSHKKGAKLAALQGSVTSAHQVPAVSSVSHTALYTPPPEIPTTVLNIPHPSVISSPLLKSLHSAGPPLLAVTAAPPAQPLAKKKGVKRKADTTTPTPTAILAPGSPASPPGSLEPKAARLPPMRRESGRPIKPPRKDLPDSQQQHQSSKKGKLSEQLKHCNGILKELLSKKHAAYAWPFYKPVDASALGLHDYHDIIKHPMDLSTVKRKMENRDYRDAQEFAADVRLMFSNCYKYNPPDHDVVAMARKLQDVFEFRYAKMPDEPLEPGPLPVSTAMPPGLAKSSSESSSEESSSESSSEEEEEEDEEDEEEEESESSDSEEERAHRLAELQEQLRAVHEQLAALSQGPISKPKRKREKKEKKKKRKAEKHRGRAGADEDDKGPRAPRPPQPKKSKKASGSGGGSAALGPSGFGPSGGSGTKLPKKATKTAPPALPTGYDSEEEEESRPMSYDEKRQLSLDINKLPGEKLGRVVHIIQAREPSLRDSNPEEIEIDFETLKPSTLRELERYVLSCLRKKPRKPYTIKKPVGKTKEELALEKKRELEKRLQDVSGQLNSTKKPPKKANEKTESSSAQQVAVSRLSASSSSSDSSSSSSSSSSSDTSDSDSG
procedure-details: Inhibition of human BRD2 BD2 after 30 mins by TR-FRET assay
Please give a number only; it is taken to be in nM.

CC(=O)N1c2ccc(-c3cnc(C(N)=O)nc3)cc2N(Cc2ccccc2CO)C[C@@H]1C1CC1 : 100

Now turn to the next compound.
Output reported IC50 of the compound CC(=O)N1c2ccc(C3=CCNCC3)cc2N(Cc2ccccc2CO)C[C@@H]1C1CC1 on Bromodomain-containing protein 2 (Homo sapiens, UniProt P25440). 316

###

tested-on: Bromodomain-containing protein 2 (Homo sapiens, UniProt P25440)
procedure-details: Inhibition of human BRD2 BD1 after 30 mins by TR-FRET assay
Parameter IC50: see the listing below.
Please give a number only; it is taken to be in nM.

CC(=O)N1c2ccc(C3=CCNCC3)cc2N(Cc2ccccc2CO)C[C@@H]1C1CC1 : 2510

Now turn to the next molecule.
Using the record for CC(=O)N1c2ccc(-c3cnc(C(N)=O)nc3)cc2N(Cc2ccccc2CO)C[C@@H]1C1CC1 , state its measured IC50. 1580

###

tested-on: Peregrin (Homo sapiens)
Sequence (P55201 whole entry): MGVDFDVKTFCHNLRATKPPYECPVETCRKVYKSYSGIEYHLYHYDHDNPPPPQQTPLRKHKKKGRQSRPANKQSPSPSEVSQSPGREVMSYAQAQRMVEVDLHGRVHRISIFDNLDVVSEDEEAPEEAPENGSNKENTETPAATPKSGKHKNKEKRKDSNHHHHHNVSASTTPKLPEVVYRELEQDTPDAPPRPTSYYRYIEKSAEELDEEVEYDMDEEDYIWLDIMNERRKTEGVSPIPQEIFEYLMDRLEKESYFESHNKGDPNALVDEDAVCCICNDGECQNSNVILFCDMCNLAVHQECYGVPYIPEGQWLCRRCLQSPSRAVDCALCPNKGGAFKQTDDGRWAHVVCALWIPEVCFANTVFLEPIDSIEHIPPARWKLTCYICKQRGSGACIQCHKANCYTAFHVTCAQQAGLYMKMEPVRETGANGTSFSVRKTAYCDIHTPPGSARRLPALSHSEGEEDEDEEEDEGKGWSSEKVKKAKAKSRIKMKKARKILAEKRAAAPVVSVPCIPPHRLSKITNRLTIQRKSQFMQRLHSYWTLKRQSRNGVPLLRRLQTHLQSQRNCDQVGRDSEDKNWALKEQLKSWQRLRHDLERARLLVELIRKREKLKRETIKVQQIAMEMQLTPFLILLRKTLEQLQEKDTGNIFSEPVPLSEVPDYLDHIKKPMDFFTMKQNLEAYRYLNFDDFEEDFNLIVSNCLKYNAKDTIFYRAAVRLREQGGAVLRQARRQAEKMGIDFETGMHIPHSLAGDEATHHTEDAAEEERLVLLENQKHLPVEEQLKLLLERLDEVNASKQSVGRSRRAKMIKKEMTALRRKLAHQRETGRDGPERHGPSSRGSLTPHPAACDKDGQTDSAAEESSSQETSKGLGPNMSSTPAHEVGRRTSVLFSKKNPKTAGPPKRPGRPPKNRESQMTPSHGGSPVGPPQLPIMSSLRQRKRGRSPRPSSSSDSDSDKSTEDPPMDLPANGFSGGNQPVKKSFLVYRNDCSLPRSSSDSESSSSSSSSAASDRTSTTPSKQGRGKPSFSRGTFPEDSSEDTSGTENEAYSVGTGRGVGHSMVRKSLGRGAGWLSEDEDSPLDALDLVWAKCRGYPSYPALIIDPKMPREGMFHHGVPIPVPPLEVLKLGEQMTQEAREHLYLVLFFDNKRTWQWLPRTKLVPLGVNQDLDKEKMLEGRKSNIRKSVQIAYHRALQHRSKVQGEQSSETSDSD
readout-name: IC50 (µM)
Please give a number only; it is taken to be in µM.

Using the record for CC(=O)N1c2ccc(C3=CCNCC3)cc2N(Cc2ccccc2CO)C[C@@H]1C1CC1 , state its measured IC50. 20
